Source of measurements: patent US20130210709A1

# system name: CXCR4 receptor (human, UniProt P61073 1-352)
# Sequence (P61073 whole entry): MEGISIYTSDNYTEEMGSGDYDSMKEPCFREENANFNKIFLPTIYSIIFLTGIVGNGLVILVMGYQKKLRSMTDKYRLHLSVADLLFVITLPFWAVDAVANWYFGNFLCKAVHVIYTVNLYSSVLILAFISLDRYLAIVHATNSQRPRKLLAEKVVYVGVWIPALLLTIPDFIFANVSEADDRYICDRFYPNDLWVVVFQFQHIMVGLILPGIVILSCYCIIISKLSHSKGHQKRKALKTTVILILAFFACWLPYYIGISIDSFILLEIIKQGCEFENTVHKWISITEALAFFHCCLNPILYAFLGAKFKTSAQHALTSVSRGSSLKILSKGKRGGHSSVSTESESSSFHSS
# assay: cell-based or functional assay
Square brackets hold non-standard residues; d marks the D form. * marks the point of attachment. Palmitoyl = CCCCCCCCCCCCCCCC(=O)*
Let's look at some binders and their measured IC50 (nM), calcium flux, CCRF-CEM.

[
  {
    "binder": "Palmitoyl-MGYQKKLRSMT[dD]KYRL-NH2 [CXCR4 i1 loop compound 163]",
    "IC50 (nM), calcium flux, CCRF-CEM": "623 nM"
  },
  {
    "binder": "Palmitoyl-MGYQKKLRSM[dT]DKYRL-NH2 [CXCR4 i1 loop compound 164]",
    "IC50 (nM), calcium flux, CCRF-CEM": "322 nM"
  },
  {
    "binder": "Palmitoyl-MGYQ[dK]KLRSMTDKYRL-NH2 [CXCR4 i1 loop compound 168]",
    "IC50 (nM), calcium flux, CCRF-CEM": "119 nM"
  },
  {
    "binder": "Palmitoyl-MGYQKKLRSMTDKYAL-NH2 (SMILES CCCCCCCCCCCCCCCC(=O)N[C@@H](CCSC)C(=O)NCC(=O)N[C@@H](Cc1ccc(O)cc1)C(=O)N[C@@H](CCC(N)=O)C(=O)N[C@@H](CCCCN)C(=O)N[C@@H](CCCCN)C(=O)N[C@@H](CC(C)C)C(=O)N[C@@H](CCCNC(=N)N)C(=O)N[C@@H](CO)C(=O)N[C@@H](CCSC)C(=O)N[C@H](C(=O)N[C@@H](CC(=O)O)C(=O)N[C@@H](CCCCN)C(=O)N[C@@H](Cc1ccc(O)cc1)C(=O)N[C@@H](C)C(=O)N[C@@H](CC(C)C)C(N)=O)[C@@H](C)O) [CXCR4 i1 loop compound 152]",
    "IC50 (nM), calcium flux, CCRF-CEM": "> 10000 nM"
  }
]
